assay: in vitro; settings: African green monkey, CC50 (toxicity) with ALB-A and ALB-F
measured_parameter: CC50

In one line, give reported CC50 of the entry `O=c1cnn([C@@H]2O[C@H](CO)[C@@H](O)[C@H]2O)c(=O)[nH]1` .
48 to 92 µM

###

system: Chikungunya virus (S27 strain); assay: microbe, parasite or virus in culture; type: cell-based; settings: Chikungunya virus, Vero 76, read-out: EC50 (mean 50% effective, virus-inhibitory concentration ± SD)
measured_parameter: pEC50
Answer as the number alone; pEC50 is minus log10 of concentration in mol/L.

# count of solved cases: 3
O=c1cnn([C@@H]2O[C@H](CO)[C@@H](O)[C@H]2O)c(=O)[nH]1 : 5.10
C#Cc1c(C(N)=O)ncn1[C@@H]1O[C@H](CO)[C@@H](O)[C@H]1O : 4.99
COc1c(C)c2c(c(O)c1C/C=C(\C)CCC(=O)O)C(=O)OC2 : 5.80

In one line, give reported pEC50 of the entry `Nc1cc2nc[nH]c2c(=O)[nH]1` .
4.89
